experiment: label from the status in PepcDB records;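 further: failed if final PepcDB status was selected cloned or expressed and not failed if soluble or beyond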

| sequence data | protein production |
| --- | --- |
| MEKHSHEHHHHHDISSISKNKLFFVIIFNFIIALAEVIGGSISGSLSLISDALHNLSDTASLILSYVSIKISEKPKNKAKTYGYKRANILAAFINSAALIGISIFLGVQALEKLTSLKKINANIVIVVALIGLLGNFLSVIILKKGAEKSLNVRSSYLHMLSDAMASLAVIISGVFIKYFAIYWIDSVLTIFINMLILKSSYNILKESINILMQTTPVNLDMDDVKEQLLKIKEIKGVHHFHIWTLDENNIVLEGHIEIDDILVSETRAISDKIEHILNEDFHITHVVIQFESTSCEDNICKI | failed |
| KPIPLAVIVVLGCFALGLGGIIGFVHKGEDYQAYQKLQWHTLAPEKIAPLVAQGYTVFVDITSDWCSICQTNKAEVTHREQVVNALMADDIILMQGNWSEADNTIAGYMQYEGIPGTPYNKIYGPRNPNGIVLPSKLTIEAVINGLAQAKAL | failed |
| MNPSHGRGLGSAGGSSSGRNQGGGGETVVEMFPSGLRVLVVDDDPTCLMILERMLRTCLYEVTKCNRAEMALSLLRKNKHGFDIVISDVHMPDMD | failed |

====

experiment: label from the status in PepcDB records

| sequence data | protein production |
| --- | --- |
| MGSSGDLANSAERKLDDEKKRCDWRFTDNTPLIAACLLTGAVVLGVHYISICKDRTDISLPTLMESIESKCRSLGDAFNASAPESVLHPVPTQIGVAIWVAREEWSLPVHDTLDRIEKVVSGAGNRKQQFIQRIVRVSQLGSDGNLEKSSSSSTKWGGSSKVSQDPLANAAIKQQLGLSVAKHAYAVSLKEELLMHTISFFAAPPSAAKSVRCFLFDDKRAYCTVSTEMGMETTKREVEAAVATLLANWLEIENFRDANATQRWAMMRKVRGCHYALRALRQLKMSVDAHPEMPVPEGVRGAADRLEKLVRESDFAKLARAAADLQFHQLLLPQIYIPWDQAVVNHLSILMPVYGVITLAVRLIKENRKRAQVVQNS | failed |
| MAPQPVIRSKQAEKTINGNQTQVVCTEFSNYIFIVLTQYGKIGTLVSITPDTRSGDISVPMYTSKVLLGKDEPLTHVYAKNVATFVSQESGNRPILLGLSLKDNSAETMKTVKDMIKSCQVW | failed |

====

assay: label from the status in PepcDB records
test readout: protein production

Here is how some sequences turned out for protein production.
| sequence data | val |
| --- | --- |
| MIFYFSGTGNSKWIAEQIAKAQNEVLVFMPNAIRDGIEEFVLADDEKVGFVFPVYSWGPPLSVLRFLDWITLSNYHSQYVFFVCSCGDDTGLTEELFRRALSRKGMECNAGFSVAMPNNYVLLPGFDVDKKELEKKKLDEAVGRVEEINDSITGKKIGFHCNEGSFPWFKTKVLNPLFNRFMTSAKPFYATDDCIGCKRCERICPVGNVVMIGWRPVWGMDCTSCLACYHVCPKHAVQYGRRTKRKGQYLNPNVSISHEAAAQLEHHHHHH | not failed |
| MGLTEQKQKHMEQLSDKNGIISALAFDQRGALKRLMAKYQSEEPTVSQIEALKVLVAEELTPYASSMLLDPEYGLPATKVLDDNAGLLLAYEKTGYDTSSTKRLPDCLDIWSAKRIKEEGADAVKFLLYYDVDSSDEVNEEKEAYIERIGSECVAEDIPFFLEILSYDEKITDSSGIEYAKIKPRKVIEAMKVFSNPRFNIDVLKVEVPVNMDYVEGFAQGETAYNKATAAAYFREQDQATLLPYIFLSAGVPAQLFQETLVFAKEAGAKFNGVLCGRATWAGSVKEYVEKGEAGARQWLRTIGFQNIDELNKILQKTATSWKER | not failed |
| IRQAARGDAERGLGRRRLMQALDGMEAGCALLDGRGSLQEASHGLCRLLGRGRADLLGMNVADVCAPEDLSRLNAALACGGRMQRLRLRLMDGDGRAVDCELVLTPQEESMDGAAWLLQAED | failed |
| MIIRIVQNIQRINKEGNAPLYISFYLGKEKVVIPCKLSVPTTKFDSKTGMLRGTNKEAKDINLIIERLKAKVNDILVKHRLKNLTLNKEAFMREYNNPSDFKSFHDFVASYMKTYSRRLEIGTFRHHKSCMRKFKEYCEGLQFHELTEDFLRDYLIYMKKTLCNADSTAQRNLSTIKIYVSAAIKKGYMENDPFKDFGVKRIKSNIDYLTEEELIKFISLYYDRRLPERLERTLGFFLFMCFTSLHISDARHVCLEQINNGILTYYRIKNRNCKPEAIKIPLSIPAFKIIEELQGKRKEGHLFTSLQCDQVVNRQIKEIASILEIKKKVSAKTGRHTFATIFLKKTKDVATLQKLLGHSNLKETMIYAHVLDESKQEGMQCFNSFAI | failed |
| MARLIGFKMAEVHRGRIVMQLDPDQSLENTAGLLHGAIAAALLDTAMGCAISTQQPAGQGSVTMDLKLSYLRPLSVRSGTIVAEGRVVKLGRQSSYTEGFVYDGAGKLAVHATATFAMLGAGPLEHHHHHH | failed |

Enquiry: Query: protein production; subject: MAVYTDITEDELRNFLTQYDVGSLTSYKGIAEGVENSNFLLHTTKDPLILTLYEKRVEKNDLPFFLGLMQHLAAKGLSCPLPLPRKDGELLGELSGRPAALISFLEGMWLRKPEAKHCREVGKALAAMHLASEGFEIKRPNALSVDGWKVLWDKSEERADEVEKGLREEIRPEIDYLAAHWPKDLPAGVIHADLFQDNVFFLGDELSGLIDFYFACNDLLAYDVSICLNAWCFEKDGAYNVTKGKALLEGYQSVRPLSEAELEALPLLSRGSALRFFLTRLYDWLTTPAGALVVKKDPLEYLRKLRFHRTIANVAEYGLAGE
Return: not failed
